Some binders, each annotated with its measured Kd.
Target: T1, AAV5
T1 construct: also called adeno-associated virus serotype 5
Assay: SPR, AAV on CM5 chip;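 note: surface plasmon resonance with AAV amine-coupled to the chip as ligand, nanobodies injected as analyte over a concentration series, rate constants and affinity fitted from binding curves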
A number alone suffices; assume nM.

# BINDER, Kd, nM
measured = [
    ("A4-039 (VHH) VHH: VQLQESGGGLVQPGGSLRLSCAASGSGFSINTMGWYRQAPGKWRELVATVTRGGSTNYAGSVKGRFTISRDNAKNTVYLQMNSLRPEDTAVYYCHIDEVRQSSWTTSNLWGQGTQVTVSS", 246),
]

Please turn your attention to the following entry.
Given the binder A4-035 (VHH) VHH: VQLQESGGGLVQAGGSLRLSCAASGRGFSINTMGWYRQAPGKQRELVAAVTRGGTTNYADSVKGRFTISRDNAKNTVYLQMNSLRPEDTAVYYCHVDEVRQSSWTTSNLWGQGTQVTVSS , write its reported Kd.
2.52
